Each recorded value in this set is attributed to patent EP4745138A1.

target: human Cereblon WT GST-tagged protein (Homo sapiens, UniProt Q96SW2); construct: purchased CISBIO 64BDCRBNPEH; assay: CRBN-binding affinity, HTRF (CEREBLON BINDING kit); conditions: read-out: Inhibition Rate at 2 µM (%)
Sequence (Q96SW2 whole entry): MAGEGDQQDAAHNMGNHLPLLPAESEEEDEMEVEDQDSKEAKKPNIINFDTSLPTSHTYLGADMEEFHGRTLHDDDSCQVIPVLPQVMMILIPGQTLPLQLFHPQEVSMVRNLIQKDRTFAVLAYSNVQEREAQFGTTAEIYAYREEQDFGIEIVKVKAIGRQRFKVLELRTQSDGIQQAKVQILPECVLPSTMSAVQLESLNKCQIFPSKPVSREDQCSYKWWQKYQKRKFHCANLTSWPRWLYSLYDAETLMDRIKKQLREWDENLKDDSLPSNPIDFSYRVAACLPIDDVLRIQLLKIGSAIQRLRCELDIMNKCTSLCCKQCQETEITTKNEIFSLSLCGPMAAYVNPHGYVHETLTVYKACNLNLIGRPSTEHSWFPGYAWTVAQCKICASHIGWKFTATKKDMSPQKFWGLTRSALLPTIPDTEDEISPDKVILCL
VALUE KIND: inhibition at 2 µM

Check out these entries, answers already filled in.
{"columns": ["COMPOUND", "SYSTEM UNDER TEST", "inhibition at 2 µM"],
 "data": [
  ["Nc1nc(Nc2ccc(S(=O)(=O)N3CCN(Cc4ccc5c(c4)C(=S)N(C4CCC(=O)NC4=O)C5)CC3)cc2)nn1C(=O)c1c(F)cccc1F (stereo not drawn) [GT-08796]", "human Cereblon WT GST-tagged protein (Homo sapiens, UniProt Q96SW2)", "80 to 100%"],
  ["Nc1nnc(-c2cc(F)ccc2O)cc1N1CCN(Cc2cccc3c2CN(C2CCC(=O)NC2=O)C3=S)CC1 (stereo not drawn) [GT-08788]", "human Cereblon WT GST-tagged protein (Homo sapiens, UniProt Q96SW2)", "80 to 100%"],
  ["CCN(c1cc(-c2ccc(N3CCN(Cc4ccc5c(c4)CN(C4CCC(=O)NC4=O)C5=S)CC3)cc2)cc(C(=O)NCc2c(C)cc(C)[nH]c2=O)c1C)C1CCOCC1 (stereo not drawn) [GT-08887]", "human Cereblon WT GST-tagged protein (Homo sapiens, UniProt Q96SW2)", "80 to 100%"],
  ["Cc1ccsc1C(=O)n1nc(Nc2ccc(S(=O)(=O)N3CCN(Cc4cccc5c4CN(C4CCC(=O)NC4=O)C5=S)CC3)cc2)nc1N (stereo not drawn) [GT-08797]", "human Cereblon WT GST-tagged protein (Homo sapiens, UniProt Q96SW2)", "53 to 60%"],
  ["COc1cc(N2CCC(N(C)Cc3cccc4c3CN(C3CCC(=O)NC3=O)C4=S)CC2)c(C)cc1Nc1ncc(Br)c(Nc2ccc3nccnc3c2P(C)(C)=O)n1 (stereo not drawn) [GT-08758]", "human Cereblon WT GST-tagged protein (Homo sapiens, UniProt Q96SW2)", "60 to 80%"]
]}

Then this compound:
// query Under human Cereblon WT GST-tagged protein (Homo sapiens, UniProt Q96SW2): inhibition at 2 µM value of CC(C)(O)c1cc2nn(C3CCN(Cc4ccc5c(c4)CN(C4CCC(=O)NC4=O)C5=S)CC3)cc2cc1NC(=O)c1cccc(C(F)(F)F)n1 (stereo not drawn) [GT-05297] ?
// result 80 to 100%

----------
target: human Cereblon WT GST-tagged protein (Homo sapiens); construct: purchased CISBIO 64BDCRBNPEH; assay: CRBN-binding affinity, HTRF (CEREBLON BINDING kit); conditions: read-out: Inhibition Rate at 2 µM (%)
This section presents compounds with their documented inhibition at 2 µM values.

Check out these entries, answers already filled in.
{"columns": ["COMPOUND", "inhibition at 2 µM"],
 "data": [
  ["O=C1CCC(N2Cc3cc(CN4CCN(C5CCN(c6ncc(C(=O)Nc7ccc(OC(F)(F)Cl)cc7)cc6-c6cc[nH]n6)CC5)CC4)ccc3C2=S)C(=O)N1 (stereo not drawn) [GT-08770]", "60 to 80%"],
  ["N#CC1(CNc2cccc(-c3cc(NC4CCN(Cc5ccc6c(c5)C(=S)N(C5CCC(=O)NC5=O)C6)CC4)ncc3Cl)n2)CCOCC1 (stereo not drawn) [GT-08752]", "80 to 100%"],
  ["O=C1CCC(N2Cc3cc(CN4CCC(n5cc(NC(=O)c6cnn7ccc(N8C[C@H]9C[C@@H]8CO9)nc67)c(C(F)F)n5)CC4)ccc3C2=S)C(=O)N1 (stereo partly drawn) [GT-05321]", "80 to 100%"],
  ["CN(c1cccc(CNc2nc(Nc3ccc(N4CCN(Cc5ccc6c(c5)C(=S)N(C5CCC(=O)NC5=O)C6)CC4)cc3)ncc2C(F)(F)F)c1)S(C)(=O)=O (stereo not drawn) [GT-09438]", "60 to 80%"],
  ["O=C1CCC(N2Cc3cc(CN4CCC(n5cc(NC(=O)c6coc(-c7ccnc(NCC8CC8)c7)n6)c(C(F)F)n5)CC4)ccc3C2=S)C(=O)N1 (stereo not drawn) [GT-05286]", "60 to 80%"]
]}

Then this compound:
// query Under human Cereblon WT GST-tagged protein (Homo sapiens): inhibition at 2 µM value of O=C1CCC(N2Cc3cc(CN4CCN(c5ccc(CC(=O)Nc6cc(C7CCC7)[nH]n6)cc5)CC4)ccc3C2=S)C(=O)N1 (stereo not drawn) [GT-08684] ?
// result 80 to 100%

----------
test system: MV-4-11; experiment: Tumor cell proliferation inhibition (CellTiter-Meiluncell Luminescent Cell Viability Assay); assay type: cell-based; details: Homo sapiens, MV4-11, 10 nM, 96 hours, Table I-3, EGFR inhibitors, read-out: Inhibition Rate at 10 nM (%)
This section presents molecules with their documented inhibition at 0.01 µM values.

Check out these entries, answers already filled in.
{"columns": ["MOLECULE", "VALUE KIND", "OBSERVED MEASUREMENT"],
 "data": [
  ["COc1cc(N2CCC(N(C)Cc3cccc4c3CN(C3CCC(=O)NC3=O)C4=S)CC2)c(C)cc1Nc1ncc(Br)c(Nc2ccc3nccnc3c2P(C)(C)=O)n1 (centres unmarked)", "inhibition at 0.01 µM", "10 to 20%"],
  ["COC1CCN(c2nccc(Nc3cc4c(cn3)c(N3CCN(Cc5ccc6c(c5)CN(C5CCC(=O)NC5=O)C6=S)CC3)nn4C(C)C)n2)CC1 (centres unmarked)", "inhibition at 0.01 µM", "5 to 10%"],
  ["COc1cc(N2CCC(N3CCN(Cc4ccc5c(c4)C(=S)N(C4CCC(=O)NC4=O)C5)CC3)CC2)c(C)cc1Nc1ncc(Br)c(Nc2ccc3nccnc3c2P(C)(C)=O)n1 (centres unmarked)", "inhibition at 0.01 µM", "30 to 40%"]
]}

// query Under MV-4-11: inhibition at 0.01 µM value of COc1cc(N2CCC(N3CCN(Cc4ccc5c(c4)CN(C4CCC(=O)NC4=O)C5=S)CC3)CC2)c(C)cc1Nc1ncc(Br)c(Nc2ccc3nccnc3c2P(C)(C)=O)n1 (centres unmarked) ?
// result 20 to 30%

// query Under MV-4-11: inhibition at 0.01 µM value of COc1cc(N2CCC(N(C)Cc3ccc4c(c3)C(=S)N(C3CCC(=O)NC3=O)C4)CC2)c(C)cc1Nc1ncc(Br)c(Nc2ccc3nccnc3c2P(C)(C)=O)n1 (centres unmarked) ?
// result 5 to 10%

// query Under MV-4-11: inhibition at 0.01 µM value of COc1cc(N2CCC(N(C)Cc3ccc4c(c3)CN(C3CCC(=O)NC3=O)C4=S)CC2)c(C)cc1Nc1ncc(Br)c(Nc2ccc3nccnc3c2P(C)(C)=O)n1 (centres unmarked) ?
// result 10 to 20%

// query Under MV-4-11: inhibition at 0.01 µM value of C#Cc1cccc(Nc2ncnc3cc(OCCOC)c(OCCOC)cc23)c1 [erlotinib, Erlotinib, reference compound] ?
// result 0 to 5%

// query Under MV-4-11: inhibition at 0.01 µM value of COC1CCN(c2nccc(Nc3cc4c(cn3)c(N3CCN(Cc5ccc6c(c5)C(=S)N(C5CCC(=O)NC5=O)C6)CC3)nn4C(C)C)n2)CC1 (centres unmarked) ?
// result 30 to 40%

----------
molecular target: human Cereblon WT GST-tagged protein (Homo sapiens, UniProt Q96SW2); construct: purchased CISBIO 64BDCRBNPEH; assay: CRBN-binding affinity, HTRF (CEREBLON BINDING kit); details: read-out: Inhibition Rate at 2 µM (%)
VALUE KIND: inhibition at 2 µM

Check out these entries, answers already filled in.
{"columns": ["COMPOUND", "inhibition at 2 µM"],
 "data": [
  ["CN(c1nccnc1CNc1nc(Nc2ccc(N3CCN(Cc4ccc5c(c4)C(=S)N(C4CCC(=O)NC4=O)C5)CC3)cc2)ncc1C(F)(F)F)S(C)(=O)=O (stereo not drawn)", "60 to 80%"],
  ["COC1CCN(c2nccc(Nc3cc4c(cn3)c(N3CCN(Cc5ccc6c(c5)CN(C5CCC(=O)NC5=O)C6=S)CC3)nn4C(C)C)n2)CC1 (stereo not drawn)", "80 to 100%"],
  ["O=C1CCC(N2Cc3cc(CN4CCC(n5cc(NC(=O)c6cnn7ccc(N8CCOCC8)nc67)c(C(F)F)n5)CC4)ccc3C2=S)C(=O)N1 (stereo not drawn)", "80 to 100%"],
  ["Cc1cc(S(=O)(=O)N2CCN(Cc3ccc4c(c3)C(=S)N(C3CCC(=O)NC3=O)C4)CC2)ccc1Nc1ncc(Br)c(Nc2cccc(F)c2C(N)=O)n1 (stereo not drawn)", "60 to 80%"],
  ["COc1cc(N2CCC(N3CCN(C)CC3)CC2)ccc1Nc1ncc(Cl)c(Nc2ccccc2P(C)(C)=O)n1 [Brigatinib, reference compound]", "10 to 20%"]
]}

// query For the compound shown here, N#CC1(CNc2nc(-c3cc(NC4CCN(Cc5cccc6c5CN(C5CCC(=O)NC5=O)C6=S)CC4)ncc3Cl)cs2)CCOCC1 (stereo not drawn) , give the reported inhibition at 2 µM.
// result 80 to 100%
